Target or system CD73 (Homo sapiens (Human)); metric pIC50; compiled from varied reports.
pIC50: −log10 of the molar value.

The recorded pIC50 with CD73 (Homo sapiens (Human)) for N[C@H]1C[C@H](NC(=O)O[C@@H]2CCN(c3cn[nH]c(=O)c3Cl)C2)C1 was 5.00 to 9.00

Bench note, CD73 (Homo sapiens (Human)): CS(=O)(=O)NCC(=O)N1CCC(NC(=O)O[C@@H]2CCN(c3cn[nH]c(=O)c3Cl)C2)CC1 , pIC50 reads 5.00 to 9.00

Observed pIC50 on CD73 (Homo sapiens (Human)), entry CN(C)CC(C)(OC[C@H]1O[C@@H](n2ncc3c(NC4CCCC4)nc(Cl)nc32)[C@H](O)[C@@H]1O)P(=O)(O)O (stereo partly shown) , equals < 6.00

# value of pIC50, CD73 (Homo sapiens (Human)), item O=C(NC1CCCCC1)N[C@H]1CC[C@H](NC(=O)O[C@@H]2CCN(c3cn[nH]c(=O)c3Cl)C2)CC1 = 5.00 to 9.00

Readout pIC50 for NC(=O)c1cc(S(=O)(=O)Nc2ccc(CCNc3nc(N)n4nc(-c5ccco5)nc4n3)c(O)c2)cc(Cl)c1O , test system CD73 (Homo sapiens (Human)), was 6.00 to 6.96

pIC50 on CD73 (Homo sapiens (Human)) for O=C(N[C@H]1CC[C@H](NS(=O)(=O)C2CCC2)CC1)O[C@@H]1CCN(c2cn[nH]c(=O)c2Cl)C1 is 5.00 to 9.00

Note to self: pIC50 of CC(CO)(OC[C@H]1O[C@@H](n2ncc3c(NC4CCCC4)nc(Cl)nc32)[C@H](O)[C@@H]1O)P(=O)(O)O (stereo partly shown) with CD73 (Homo sapiens (Human)) was ≥ 7.00

The reported pIC50 value, CD73 (Homo sapiens (Human)), for CN(c1nc(Cl)nc2c1ncn2[C@@H]1O[C@H](CN(CC2CC2)C(=O)CP(=O)(O)O)[C@@H](O)[C@H]1O)C1CCCC1 reads > 7.00

pIC50 for CD73 (Homo sapiens (Human)) with input C[C@](CO)(OC[C@H]1O[C@@H](n2ncc3c(N[C@@H]4CCc5cc(F)ccc54)nc(Cl)nc32)[C@H](O)[C@@H]1O)P(=O)(O)O equals ≥ 7.00

GET /values?item= C[C@@H](OCP(=O)(O)O)[C@H]1O[C@@H](n2ncc3c(NCc4ccccc4Cl)nc(Cl)nc32)[C@H](O)[C@@H]1O &system= CD73 (Homo sapiens (Human)) returns pIC50: < 6.00

Measured pIC50 (CD73 (Homo sapiens (Human))), entry C[C@H](Nc1nc(Cl)nc2c1cnn2[C@@H]1O[C@H](COP(=O)(O)CP(=O)(O)O)[C@@H](O)[C@H]1O)c1ccc(S(F)(F)(F)(F)F)cc1F : 7.63

Response field pIC50 (CD73 (Homo sapiens (Human))) for item O=P(O)(O)C(CO)(COC1CCC1)OC[C@H]1O[C@@H](n2ncc3c(NC4CCCC4)nc(Cl)nc32)[C@H](O)[C@@H]1O (mixture of isomers) : ≥ 7.00

CD73 (Homo sapiens (Human)) assay, molecule C[C@@](CS(C)(=O)=O)(OC[C@H]1O[C@@H](n2ncc3c(NC4CCCC4)nc(Cl)nc32)[C@H](O)[C@@H]1O)P(=O)(O)O , recorded pIC50 = ≥ 7.00

---

// cross-study collection: IC50 for CD73 (Homo sapiens (Human))

Entry O=P(O)(O)C(CO)(CO)OC[C@H]1O[C@@H](n2ncc3c(NC4CCC45CCC5)nc(Cl)nc32)[C@H](O)[C@@H]1O (mixture of isomers) , CD73 (Homo sapiens (Human)) data, IC50 value: ≤ 100 nM

The observed IC50 for CC(C)(O)C#Cc1nc(NC2CCCC2)c2cnn([C@@H]3O[C@H](COC(C)(CO)P(=O)(O)O)[C@@H](O)[C@H]3O)c2n1 (mixture of isomers) when tested with CD73 (Homo sapiens (Human)) stands at ≤ 100 nM

Given the compound COC(=O)[C@H]1CC[C@@H](NC(=O)O[C@@H]2CCN(c3cn[nH]c(=O)c3Cl)C2)CC1 and test system CD73 (Homo sapiens (Human)), the measured IC50 is 1 to 10000 nM

Known value: CD73 (Homo sapiens (Human)) IC50 of the compound CN(CC1CC1)c1nc(Cl)nc2c1cnn2[C@@H]1O[C@H](CS(=O)(=O)CP(=O)(O)O)[C@@H](O)[C@H]1O equals ≤ 500 nM

Kindly note: CD73 (Homo sapiens (Human)), CC(C)Nc1nc(Cl)nc2c1cnn2[C@@H]1O[C@H](COCP(=O)(O)O)[C@@H](O)[C@H]1O , IC50 value reported: ≤ 500 nM

Entry O=C(N[C@H]1C[C@@](O)(C(F)(F)F)C1)O[C@@H]1CCN(c2cn[nH]c(=O)c2Cl)C1 under CD73 (Homo sapiens (Human)) had IC50 of 1 to 10000 nM

// compound C[C@H]1CCC[C@H]1Nc1nc(Cl)nc2c1cnn2[C@@H]1O[C@H](CS(=O)(=O)CP(=O)(O)O)[C@@H](O)[C@H]1O , assay CD73 (Homo sapiens (Human)), IC50 value: ≤ 500 nM

IC50 value, target or system CD73 (Homo sapiens (Human)), for Cc1onc(C(=O)N2CCC(NC(=O)O[C@@H]3CCN(c4cn[nH]c(=O)c4Cl)C3)CC2)c1C : 1 to 10000 nM

Entry CCCS(=O)(=O)N[C@H]1CC[C@H](NC(=O)O[C@@H]2CCN(c3cn[nH]c(=O)c3Cl)C2)CC1 under CD73 (Homo sapiens (Human)) had IC50 of 1 to 10000 nM

CD73 (Homo sapiens (Human)) assay, compound O=C(NC1CCCC1)N[C@H]1CCN(c2cn[nH]c(=O)c2Cl)C1 , recorded IC50 = 10000 to 100000 nM

Log: CD73 (Homo sapiens (Human)), compound Cn1ncc(N2CC[C@@H](OC(=O)N[C@H]3CC[C@@H](NC(=O)c4ccccc4)CC3)C2)c(Cl)c1=O , IC50 = 1 to 10000 nM

Assay CD73 (Homo sapiens (Human)), sample COC[C@@](CO)(OC[C@H]1O[C@@H](c2ccc3c(NC4CCCC4)nc(Cl)nn23)[C@H](O)[C@@H]1O)P(=O)(O)O , IC50 read: 1 to 100 nM

Summary: O=P(O)(O)COC[C@H]1O[C@@H](n2nnc3c(NCC4CC4)cc(Cl)nc32)[C@H](O)[C@@H]1O , CD73 (Homo sapiens (Human)), IC50 = ≤ 100 nM

Form field, IC50 with CD73 (Homo sapiens (Human)), item Cc1c(N2CC[C@@H](OC(=O)NC3CCC(F)(F)C3)C2)cn[nH]c1=O (some centres unmarked) : 1 to 10000 nM

---

pIC50: −log10 of the molar value.
// compounds with reported pIC50 on CD73 (Homo sapiens (Human)), multi-publication

Recorded result, CCC(CC)Nc1nc(Cl)nc2c1cnn2[C@@H]1O[C@H](COCP(=O)(O)O)[C@@H](O)[C@H]1O , pIC50: ≥ 6.30

Item: COCC(C)(OC[C@H]1O[C@@H](n2ncc3c(NC4CCCC4)cc(Cl)nc32)[C@H](O)[C@@H]1O)P(=O)(O)O (stereo partly shown) | pIC50: ≥ 7.00

So for O=C(NC1CCCCC1)N[C@H]1CC[C@@H](NC(=O)O[C@@H]2CCN(c3cn[nH]c(=O)c3Cl)C2)CC1 , the logged pIC50 turned out to be 5.00 to 9.00

Reported pIC50 of CN(C[C@H]1O[C@@H](n2cnc3c(N[C@H]4CCOC4)nc(Cl)nc32)[C@H](O)[C@@H]1O)C(=O)CP(=O)(O)OCOC(=O)OCC(C)(C)C : < 6.00

---

// compounds with reported IC50 on CD73 (Homo sapiens (Human), UniProt P21589), multi-publication

Recorded result, O=P(O)(O)[C@](CO)(COCc1nn[nH]n1)OC[C@H]1O[C@@H](c2ccc3c(NC4CCCC4)nc(Cl)nn23)[C@H](O)[C@@H]1O , IC50: 0.5 to 1 nM

Noted for O=P(O)(O)CP(=O)(O)OC[C@H]1C[C@@H](c2ccc3c(N[C@@H]4CCc5cc(C(F)(F)F)ccc54)nc(Cl)nn23)[C@H](O)[C@@H]1O : its IC50 reads 63 nM

The recorded IC50 for C[C@@](CO)(OC[C@H]1O[C@@H](n2ncc3c(N[C@@H]4CCc5ccc(F)cc54)nc(Cl)nc32)[C@H](O)[C@@H]1O)P(=O)(O)O is ≤ 100 nM

Noted for O=C(O)C(OC[C@H]1O[C@@H](n2ncc3c(NC4CCCC4)nc(Cl)nc32)[C@H](O)[C@@H]1O)P(=O)(O)O (stereo partly shown) : its IC50 reads ≤ 100 nM

The reported IC50 of the compound CN(C[C@H]1O[C@@H](n2cnc3c(N[C@H]4CCOC4)nc(Cl)nc32)[C@H](O)[C@@H]1O)C(=O)CP(=O)(OCOC(=O)OCC(C)(C)C)OCOC(=O)OCC(C)(C)C was > 1000 nM

Noted for O=C(NC1CCC(F)(F)CC1)O[C@@H]1CCN(c2cn[nH]c(=O)c2Cl)C1 : its IC50 reads 1 to 10000 nM

So for O=C(NC1CCN(C(=O)c2ccccc2C(F)(F)F)CC1)O[C@@H]1CCN(c2cn[nH]c(=O)c2Cl)C1 , the logged IC50 turned out to be 1 to 10000 nM

So, NC(=O)OC[C@](CO)(OC[C@H]1O[C@@H](n2ncc3c(NC4CCCC4)nc(Cl)nc32)[C@H](O)[C@@H]1O)P(=O)(O)O (racemic) ? Its IC50 was ≤ 100 nM

Briefly, IC50 measured for O=P(O)(O)[C@](CO)(Cc1nn[nH]n1)OC[C@H]1O[C@@H](n2ncc3c(N[C@@H]4CCc5ccccc54)nc(Cl)nc32)[C@H](O)[C@@H]1O : 10 to 100 nM

get_value(item= O=P(O)(O)COC[C@H]1O[C@@H](n2ncc3c(NCc4ccccc4Cl)nc(CO)nc32)[C@H](O)[C@@H]1O , readout=IC50) returns ≤ 500 nM

Measured IC50, Cn1ncc(N2CC[C@@H](OC(=O)N[C@H]3CC[C@H](NS(=O)(=O)NC4CCCC4)CC3)C2)c(Cl)c1=O : 1 to 10000 nM

What the record says about O=CN1CCC(CNC(=O)O[C@@H]2CCN(c3cn[nH]c(=O)c3Cl)C2)CC1 : IC50 is 1 to 10000 nM

The reported value for O=C(NC1CCN(C(=O)Nc2cccc(OC(F)F)c2)CC1)O[C@@H]1CCN(c2cn[nH]c(=O)c2Cl)C1 in terms of IC50 is 1 to 10000 nM
